- method: Stability of analytes in rat plasma QC samples under processing and storage conditions
- Type: in vitro ADME
- assay-conditions: rat plasma, spiked 2 ng/mL, n = 6
parameter: Measured concentration, room temperature for 4h (ng/mL)
Write it as a number; the unit ng/mL goes unstated.

The cases that follow already have their Measured concentration, room temperature for 4h on record.
- molecule: "O=c1cc(-c2ccc(O)c(O)c2)oc2cc(O)cc(O)c12"
  unit-abbrev: "ng/mL"
  measured-result: 2.2
- molecule: "O=c1c(O[C@@H]2O[C@H](CO)[C@@H](O)[C@H](O)[C@H]2O)c(-c2ccc(O)cc2)oc2cc(O)cc(O)c12"
  unit-abbrev: "ng/mL"
  measured-result: 2.1
- molecule: "O=c1c(O)c(-c2ccc(O)c(O)c2)oc2cc(O)cc(O)c12"
  unit-abbrev: "ng/mL"
  measured-result: 2.2
- molecule: "C[C@@H]1O[C@@H](Oc2c(-c3ccc(O)c(O)c3)oc3cc(O)cc(O)c3c2=O)[C@H](O)[C@H](O)[C@H]1O"
  unit-abbrev: "ng/mL"
  measured-result: 2.1
- molecule: "COc1cc(-c2oc3cc(O)cc(O)c3c(=O)c2O[C@@H]2O[C@H](CO)[C@@H](O)[C@H](O)[C@H]2O)ccc1O [Isorhamnetin-3-O-glucoside]"
  unit-abbrev: "ng/mL"
  measured-result: 2.0
- molecule: "O=C(/C=C/c1ccc(O)c(O)c1)O[C@H]1[C@H](O)C[C@](O)(C(=O)O)C[C@H]1O"
  unit-abbrev: "ng/mL"
  measured-result: 2.0

[in] Which Measured concentration, room temperature for 4h is reported for this molecule? O=c1c(O[C@@H]2O[C@H](CO)[C@H](O)[C@H](O)[C@H]2O)c(-c2ccc(O)c(O)c2)oc2cc(O)cc(O)c12 [Hyperoside]
[out] 2.0

[in] Which Measured concentration, room temperature for 4h is reported for this molecule? O=C(/C=C/c1ccc(O)c(O)c1)O[C@@H]1C[C@](O)(C(=O)O)C[C@@H](O)[C@H]1O
[out] 2.1

* * *

- method: Stability of analytes in rat plasma QC samples under processing and storage conditions
- Assay type: in vitro ADME
- assay-conditions: rat plasma, spiked 2 ng/mL, n = 6
Measured Measured concentration, −70°C for 21 days, listed per entry.
The number alone won't do; follow it with the unit.

- chem-smiles: "O=C(O)/C=C/c1ccc(O)c(O)c1"
  measured-result: "2.0 ± 0.1 ng/mL"
- chem-smiles: "O=c1c(O)c(-c2ccc(O)cc2)oc2cc(O)cc(O)c12"
  measured-result: "2.0 ± 0.1 ng/mL"
- chem-smiles: "O=c1c(O[C@@H]2O[C@H](CO)[C@@H](O)[C@H](O)[C@H]2O)c(-c2ccc(O)cc2)oc2cc(O)cc(O)c12"
  measured-result: "2.0 ± 0.1 ng/mL"

Proceed to the following item.
[in] Which Measured concentration, −70°C for 21 days is reported for this molecule? O=c1cc(-c2ccc(O)cc2)oc2cc(O)cc(O)c12
[out] 2.1 ± 0.1 ng/mL

* * *

- method: Stability of analytes in rat plasma QC samples under processing and storage conditions
- Assay type: in vitro ADME
- assay-conditions: rat plasma, spiked 250 ng/mL, n = 6
- Experimental: The stability of the 13 analytes was evaluated by QC samples in different processing and storage conditions, including short-term stability (putting the analytes in ambient temperature for 4 h and storing analytes in autosampler for 12 h after treatment), long-term stability (storing the analytes at −70°C for 21 days) and subjecting analytes to three freeze-thaw cycles. All stability experiments were tested in six parallels with low, middle, and high concentrations.
Measured Measured concentration, −70°C for 21 days, listed per entry.
Write it as a number; the unit ng/mL goes unstated.

The cases that follow already have their Measured concentration, −70°C for 21 days on record.
- compound: "COc1cc(-c2oc3cc(O)cc(O)c3c(=O)c2O[C@@H]2O[C@H](CO)[C@@H](O)[C@H](O)[C@H]2O)ccc1O [Isorhamnetin-3-O-glucoside]"
  measured-result: 249.5
- compound: "O=c1c(O)c(-c2ccc(O)c(O)c2)oc2cc(O)cc(O)c12"
  measured-result: 260.0

Proceed to the following item.
[in] Which Measured concentration, −70°C for 21 days is reported for this compound? C[C@@H]1O[C@@H](Oc2c(-c3ccc(O)c(O)c3)oc3cc(O)cc(O)c3c2=O)[C@H](O)[C@H](O)[C@H]1O
[out] 247.9

* * *

- method: Stability of analytes in rat plasma QC samples under processing and storage conditions
- Assay type: in vitro ADME
- assay-conditions: treated rat plasma sample, spiked 250 ng/mL, n = 6
Measured Measured concentration, autosampler for 12h, listed per entry.
Write it as a number; the unit ng/mL goes unstated.

- compound: "O=C(/C=C/c1ccc(O)c(O)c1)O[C@H]1[C@H](O)C[C@](O)(C(=O)O)C[C@H]1O"
  unit-abbrev: "ng/mL"
  measured-result: 251.2
- compound: "O=c1c(O[C@@H]2O[C@H](CO)[C@@H](O)[C@H](O)[C@H]2O)c(-c2ccc(O)cc2)oc2cc(O)cc(O)c12"
  unit-abbrev: "ng/mL"
  measured-result: 254.6
- compound: "COc1cc(-c2oc3cc(O)cc(O)c3c(=O)c2O[C@@H]2O[C@H](CO)[C@@H](O)[C@H](O)[C@H]2O)ccc1O [Isorhamnetin-3-O-glucoside]"
  unit-abbrev: "ng/mL"
  measured-result: 251.5

Proceed to the following item.
[in] Which Measured concentration, autosampler for 12h is reported for this compound? O=c1cc(-c2ccc(O)cc2)oc2cc(O)cc(O)c12
[out] 248.5

* * *

Measured Tmax, listed per entry.
- method: Pharmacokinetic study in rats after oral administration of Semen Cuscutae extract (HPLC-MS/MS of plasma)
- Format: in vivo, Sprague–Dawley rats
- assay-conditions: male, Sprague-Dawley, rat, plasma, po, 13 g/kg, oral Semen Cuscutae extract 13 g/kg, n = 6

- compound: "C[C@@H]1O[C@@H](OC[C@H]2O[C@@H](Oc3c(-c4ccc(O)c(O)c4)oc4cc(O)cc(O)c4c3=O)[C@H](O)[C@@H](O)[C@@H]2O)[C@H](O)[C@H](O)[C@H]1O [Rutin]"
  Tmax: "10 h"

Proceed to the following item.
[in] Which Tmax is reported for this compound? O=C(O)/C=C/c1ccc(O)c(O)c1 [Caffeic acid]
[out] 0.28 h

* * *

Measured Measured concentration, room temperature for 4h, listed per entry.
- method: Stability of analytes in rat plasma QC samples under processing and storage conditions
- Type: in vitro ADME
- assay-conditions: rat plasma, spiked 25 ng/mL, n = 6
- Procedure: The stability of the 13 analytes was evaluated by QC samples in different processing and storage conditions, including short-term stability (putting the analytes in ambient temperature for 4 h and storing analytes in autosampler for 12 h after treatment), long-term stability (storing the analytes at −70°C for 21 days) and subjecting analytes to three freeze-thaw cycles. All stability experiments were tested in six parallels with low, middle, and high concentrations.
Write it as a number; the unit ng/mL goes unstated.

- compound: "O=c1c(O[C@@H]2O[C@H](CO)[C@@H](O)[C@H](O)[C@H]2O)c(-c2ccc(O)cc2)oc2cc(O)cc(O)c12"
  measured-result: 27.6

[in] Which Measured concentration, room temperature for 4h is reported for this compound? O=c1c(O[C@@H]2O[C@H](CO)[C@H](O)[C@H](O)[C@H]2O)c(-c2ccc(O)c(O)c2)oc2cc(O)cc(O)c12 [Hyperoside]
[out] 23.0

[in] Which Measured concentration, room temperature for 4h is reported for this compound? O=C(O)/C=C/c1ccc(O)c(O)c1
[out] 27.9

[in] Which Measured concentration, room temperature for 4h is reported for this compound? O=c1cc(-c2ccc(O)cc2)oc2cc(O)cc(O)c12
[out] 26.4

[in] Which Measured concentration, room temperature for 4h is reported for this compound? O=c1cc(-c2ccc(O)c(O)c2)oc2cc(O)cc(O)c12
[out] 26.5

[in] Which Measured concentration, room temperature for 4h is reported for this compound? O=C(/C=C/c1ccc(O)c(O)c1)O[C@H]1[C@H](O)C[C@](O)(C(=O)O)C[C@H]1O
[out] 27.0

[in] Which Measured concentration, room temperature for 4h is reported for this compound? O=c1c(O)c(-c2ccc(O)c(O)c2)oc2cc(O)cc(O)c12
[out] 26.2

[in] Which Measured concentration, room temperature for 4h is reported for this compound? O=C(/C=C/c1ccc(O)c(O)c1)O[C@@H]1C[C@](O)(C(=O)O)C[C@@H](O)[C@H]1O
[out] 27.7

[in] Which Measured concentration, room temperature for 4h is reported for this compound? COc1cc(-c2oc3cc(O)cc(O)c3c(=O)c2O[C@@H]2O[C@H](CO)[C@@H](O)[C@H](O)[C@H]2O)ccc1O [Isorhamnetin-3-O-glucoside]
[out] 27.1

[in] Which Measured concentration, room temperature for 4h is reported for this compound? C[C@@H]1O[C@@H](Oc2c(-c3ccc(O)c(O)c3)oc3cc(O)cc(O)c3c2=O)[C@H](O)[C@H](O)[C@H]1O
[out] 26.3

[in] Which Measured concentration, room temperature for 4h is reported for this compound? O=c1c(O)c(-c2ccc(O)cc2)oc2cc(O)cc(O)c12
[out] 24.8
